As shown below, each of these molecules has a reported relative viability value.
Test system: EKVX
testProtocol: relative viability (nuclei count vs DMSO), 5 days (fraction); higher = more cells survive
measurementConditions: first compound 0.8 µM

| molecule | measurement |
| --- | --- |
| Cc1cnc(-c2cnc(NCCNc3ccc(C#N)cn3)nc2-c2ccc(Cl)cc2Cl)[nH]1 + C[C@]1(O)C[C@@H](c2nc(-c3ccc4ccc(-c5ccccc5)nc4c3)c3c(N)nccn32)C1 [Linsitinib] (partner 1 µM) | 0.934 |

// fetch relative viability for O=c1[nH]c2ccccc2n1C1CCN(CCCC(c2ccc(F)cc2)c2ccc(F)cc2)CC1 [Pimozide] + O=C(c1cc(Cc2n[nH]c(=O)c3ccccc23)ccc1F)N1CCN(C(=O)C2CC2)CC1 [Olaparib] (partner 8 µM) ; system: EKVX
0.823

// fetch relative viability for O=c1[nH]c2ccccc2n1C1CCN(CCCC(c2ccc(F)cc2)c2ccc(F)cc2)CC1 [Pimozide] + CS(=O)(=O)CCNCc1ccc(-c2ccc3ncnc(Nc4ccc(OCc5cccc(F)c5)c(Cl)c4)c3c2)o1 [Lapatinib] (partner 2 µM) ; system: EKVX
0.221

###

Tested on: NCI-H2009
testProtocol: relative viability (nuclei count vs DMSO), 5 days (fraction); higher = more cells survive
measurementConditions: first compound 8 µM
As shown below, each of these compounds has a reported relative viability value.
// keep it numeric: no unit symbol after the value

// fetch relative viability for O=c1[nH]c2ccccc2n1C1CCN(CCCC(c2ccc(F)cc2)c2ccc(F)cc2)CC1 [Pimozide] + Nc1ncn([C@H]2C[C@H](O)[C@@H](CO)O2)c(=O)n1 [Decitabine] (partner 2 µM) ; system: NCI-H2009
0.412

// fetch relative viability for O=c1[nH]c2ccccc2n1C1CCN(CCCC(c2ccc(F)cc2)c2ccc(F)cc2)CC1 [Pimozide] + CS(=O)(=O)CCNCc1ccc(-c2ccc3ncnc(Nc4ccc(OCc5cccc(F)c5)c(Cl)c4)c3c2)o1 [Lapatinib] (partner 2 µM) ; system: NCI-H2009
0.763

// fetch relative viability for O=c1[nH]c2ccccc2n1C1CCN(CCCC(c2ccc(F)cc2)c2ccc(F)cc2)CC1 [Pimozide] + CCNC(=O)c1noc(-c2cc(C(C)C)c(O)cc2O)c1-c1ccc(CN2CCOCC2)cc1 [Luminespib] (partner 0.01 µM) ; system: NCI-H2009
0.842

// fetch relative viability for O=c1[nH]c2ccccc2n1C1CCN(CCCC(c2ccc(F)cc2)c2ccc(F)cc2)CC1 [Pimozide] + COc1cccc2cc(-c3nc([C@H]4CC[C@H](C(=O)O)CC4)n4ncnc(N)c34)[nH]c12 [OSI-027] (partner 0.5 µM) ; system: NCI-H2009
0.416

// fetch relative viability for O=c1[nH]c2ccccc2n1C1CCN(CCCC(c2ccc(F)cc2)c2ccc(F)cc2)CC1 [Pimozide] + CS(=O)(=O)N1CCN(Cc2cc3nc(-c4cccc5[nH]ncc45)nc(N4CCOCC4)c3s2)CC1 [Pictilisib] (partner 1 µM) ; system: NCI-H2009
0.575

###

Test system: NCI-H1437
testProtocol: relative viability (nuclei count vs DMSO), 5 days (fraction); higher = more cells survive
measurementConditions: first compound 0.4 µM
As shown below, each of these compounds has a reported relative viability value.
// keep it numeric: no unit symbol after the value

Answered examples (3):
| compound | relative viability |
| --- | --- |
| Cc1sc2c(c1C)C(c1ccc(Cl)cc1)=N[C@@H](CC(=O)OC(C)(C)C)c1nnc(C)n1-2 [JQ1] + Nc1nc2[nH]cc(CCc3ccc(C(=O)N[C@@H](CCC(=O)O)C(=O)O)cc3)c2c(=O)[nH]1 [Pemetrexed] (partner 0.2 µM) | 0.244 |
| Cc1sc2c(c1C)C(c1ccc(Cl)cc1)=N[C@@H](CC(=O)OC(C)(C)C)c1nnc(C)n1-2 [JQ1] + CC1(C)CCC(c2ccc(Cl)cc2)=C(CN2CCN(c3ccc(C(=O)NS(=O)(=O)c4ccc(N[C@H](CCN5CCOCC5)CSc5ccccc5)c(S(=O)(=O)C(F)(F)F)c4)cc3)CC2)C1 [Navitoclax] (partner 0.5 µM) | 0.693 |
| Cc1sc2c(c1C)C(c1ccc(Cl)cc1)=N[C@@H](CC(=O)OC(C)(C)C)c1nnc(C)n1-2 [JQ1] + COc1cccc2cc(-c3nc([C@H]4CC[C@H](C(=O)O)CC4)n4ncnc(N)c34)[nH]c12 [OSI-027] (partner 0.5 µM) | 0.599 |

Continue with the next compound.
// fetch relative viability for Cc1sc2c(c1C)C(c1ccc(Cl)cc1)=N[C@@H](CC(=O)OC(C)(C)C)c1nnc(C)n1-2 [JQ1] + C[C@@H](Oc1cc(-c2cnn(C3CCNCC3)c2)cnc1N)c1c(Cl)ccc(F)c1Cl [Crizotinib] (partner 1 µM) ; system: NCI-H1437
0.666

###

Test system: NCI-H358
testProtocol: relative viability (nuclei count vs DMSO), 5 days (fraction); higher = more cells survive
measurementConditions: first compound 2.53 µM
As shown below, each of these compounds has a reported relative viability value.

Answered examples (4):
| compound | relative viability |
| --- | --- |
| O=c1[nH]c2ccccc2n1C1CCN(CCCC(c2ccc(F)cc2)c2ccc(F)cc2)CC1 [Pimozide] + CS(=O)(=O)CCNCc1ccc(-c2ccc3ncnc(Nc4ccc(OCc5cccc(F)c5)c(Cl)c4)c3c2)o1 [Lapatinib] (partner 2 µM) | 0.477 |
| Cc1cnc(-c2cnc(NCCNc3ccc(C#N)cn3)nc2-c2ccc(Cl)cc2Cl)[nH]1 + Cc1nc(NC(=O)N2CCC[C@H]2C(N)=O)sc1-c1ccnc(C(C)(C)C(F)(F)F)c1 [Alpelisib] (partner 2 µM) | 0.729 |
| Cc1cnc(-c2cnc(NCCNc3ccc(C#N)cn3)nc2-c2ccc(Cl)cc2Cl)[nH]1 + COc1cccc2cc(-c3nc([C@H]4CC[C@H](C(=O)O)CC4)n4ncnc(N)c34)[nH]c12 [OSI-027] (partner 0.5 µM) | 0.627 |
| Cc1cnc(-c2cnc(NCCNc3ccc(C#N)cn3)nc2-c2ccc(Cl)cc2Cl)[nH]1 + CC(=O)c1c(C)c2cnc(Nc3ccc(N4CCNCC4)cn3)nc2n(C2CCCC2)c1=O [Palbociclib] (partner 0.5 µM) | 0.143 |

Name the recorded relative viability of the item Cc1cnc(-c2cnc(NCCNc3ccc(C#N)cn3)nc2-c2ccc(Cl)cc2Cl)[nH]1 + C[C@@H](Oc1cc(-c2cnn(C3CCNCC3)c2)cnc1N)c1c(Cl)ccc(F)c1Cl [Crizotinib] (partner 1 µM) in your answer.
0.46

Name the recorded relative viability of the item O=c1[nH]c2ccccc2n1C1CCN(CCCC(c2ccc(F)cc2)c2ccc(F)cc2)CC1 [Pimozide] + Cc1nc(NC(=O)N2CCC[C@H]2C(N)=O)sc1-c1ccnc(C(C)(C)C(F)(F)F)c1 [Alpelisib] (partner 2 µM) in your answer.
0.808

Name the recorded relative viability of the item O=c1[nH]c2ccccc2n1C1CCN(CCCC(c2ccc(F)cc2)c2ccc(F)cc2)CC1 [Pimozide] + C[C@@H](Oc1cc(-c2cnn(C3CCNCC3)c2)cnc1N)c1c(Cl)ccc(F)c1Cl [Crizotinib] (partner 1 µM) in your answer.
0.335

Name the recorded relative viability of the item Cc1cnc(-c2cnc(NCCNc3ccc(C#N)cn3)nc2-c2ccc(Cl)cc2Cl)[nH]1 + CS(=O)(=O)N1CCN(Cc2cc3nc(-c4cccc5[nH]ncc45)nc(N4CCOCC4)c3s2)CC1 [Pictilisib] (partner 1 µM) in your answer.
0.264

Name the recorded relative viability of the item O=c1[nH]c2ccccc2n1C1CCN(CCCC(c2ccc(F)cc2)c2ccc(F)cc2)CC1 [Pimozide] + COc1cc2c(Oc3ccc(NC(=O)C4(C(=O)Nc5ccc(F)cc5)CC4)cc3F)ccnc2cc1OCCCN1CCOCC1 [Foretinib] (partner 0.25 µM) in your answer.
0.562

###

Test system: NCI-H1975
testProtocol: relative viability (nuclei count vs DMSO), 5 days (fraction); higher = more cells survive
measurementConditions: first compound 0.253 µM
assayEndpoint: relative viability
// keep it numeric: no unit symbol after the value

| compound | relative viability |
| --- | --- |
| Cc1cnc(-c2cnc(NCCNc3ccc(C#N)cn3)nc2-c2ccc(Cl)cc2Cl)[nH]1 + CC(C)C[C@H](NC(=O)[C@H](Cc1ccccc1)NC(=O)c1cnccn1)B(O)O [Bortezomib] (partner 0.002 µM) | 0.391 |

Continue with the next compound.
Name the recorded relative viability of the item O=c1[nH]c2ccccc2n1C1CCN(CCCC(c2ccc(F)cc2)c2ccc(F)cc2)CC1 [Pimozide] + CS(=O)(=O)N1CCN(Cc2cc3nc(-c4cccc5[nH]ncc45)nc(N4CCOCC4)c3s2)CC1 [Pictilisib] (partner 1 µM) in your answer.
0.262

###

System: NCI-H2023
testProtocol: relative viability (nuclei count vs DMSO), 5 days (fraction); higher = more cells survive
measurementConditions: first compound 0.002 µM
assayEndpoint: relative viability
// keep it numeric: no unit symbol after the value

| compound | relative viability |
| --- | --- |
| CC(=O)O[C@@]12CO[C@@H]1C[C@H](O)[C@@]1(C)C(=O)[C@H](O)C3=C(C)[C@@H](OC(=O)[C@H](O)[C@@H](NC(=O)OC(C)(C)C)c4ccccc4)C[C@@](O)([C@@H](OC(=O)c4ccccc4)[C@H]21)C3(C)C [Docetaxel] + Nc1nc2[nH]cc(CCc3ccc(C(=O)N[C@@H](CCC(=O)O)C(=O)O)cc3)c2c(=O)[nH]1 [Pemetrexed] (partner 0.2 µM) | 0.144 |

Continue with the next compound.
// fetch relative viability for CC(=O)O[C@@]12CO[C@@H]1C[C@H](O)[C@@]1(C)C(=O)[C@H](O)C3=C(C)[C@@H](OC(=O)[C@H](O)[C@@H](NC(=O)OC(C)(C)C)c4ccccc4)C[C@@](O)([C@@H](OC(=O)c4ccccc4)[C@H]21)C3(C)C [Docetaxel] + CC(=O)c1c(C)c2cnc(Nc3ccc(N4CCNCC4)cn3)nc2n(C2CCCC2)c1=O [Palbociclib] (partner 0.5 µM) ; system: NCI-H2023
0.101
